Biological target: murine IDO (Mus musculus)
Construct: expressed in transfected cells; host or cells: 293-T-REx cells (Invitrogen), doxycycline-inducible CMV-tet promoter
Experiment: Cell based IDO/kynurenine assay in 293-T-Rex cells expressing murine IDO
Details: Table 15; cells expressing murine IDO; read-out: mIDO EC50
Listed here: items and their measured EC50.

Example cases with answers are listed next.
NOCc1cccc(N)c1 [compound 1824, 3-(aminooxymethyl)aniline]; 10 to 100 µM
CNC(=O)C(ON)c1ccccc1 (stereo not drawn) [compound 1897, 2-(aminooxy)-N-methyl-2-phenylacetamide]; < 10 µM
CNC(=O)CCC(ON)c1ccccc1 (stereo not drawn) [compound 1898, 4-(aminooxy)-N-methyl-4-phenylbutanamide]; 10 to 100 µM

Here is another compound to look at.
Look at this compound and give its reported EC50. NOCc1ccccc1-c1ccc(Cl)cc1 [compound 1879]
10 to 100 µM

----------
Biological target: murine IDO (Mus musculus)
Construct: expressed in transfected cells; host or cells: 293-T-REx cells (Invitrogen), doxycycline-inducible CMV-tet promoter
Assay: Cell based IDO/kynurenine assay in 293-T-Rex cells expressing murine IDO
Settings: Table 16; cells expressing murine IDO; read-out: mIDO EC50
The reader will find reported EC50 values listed item by item below.

Consider the following illustrative entries.
NOCc1cccc(CON)c1; < 10 µM
NOCc1cccc(C(F)(F)F)c1; < 10 µM
NOCc1ccccc1Br [compound 1675, O-(2-bromobenzyl)hydroxylamine]; < 10 µM
COC(=O)c1ccc(CON)cc1 [compound 1684, methyl 4-(aminooxymethyl)benzoate]; 10 to 100 µM
NOCc1cccc2ccccc12 [compound 1767, O-(naphthalen-1-ylmethyl)hydroxylamine]; 10 to 100 µM
COc1ccc(CON)cc1 [compound 1815, O-(4-methoxybenzyl)hydroxylamine]; 10 to 100 µM
NOCc1cccc([N+](=O)[O-])c1 [compound 317, O-(3-nitrobenzyl)hydroxylamine]; < 10 µM
NOCc1ccc([N+](=O)[O-])cc1 [compound 1014, O-(4-nitrobenzyl)hydroxylamine]; 10 to 100 µM
NOCCc1cccc([N+](=O)[O-])c1 [compound 1752, O-(3-nitrophenethyl)hydroxylamine]; < 10 µM
NOCc1ccccc1[N+](=O)[O-] [compound 811, O-(2-nitrobenzyl)hydroxylamine]; 10 to 100 µM

Enter reported EC50 observed with murine IDO (Mus musculus) for NOCc1ccc(I)cc1 [compound 1818, O-(4-iodobenzyl)hydroxylamine]
10 to 100 µM

And for NOCc1ccc(F)cc1 [compound 774, O-(4-fluorobenzyl)hydroxylamine] ?
< 10 µM

And NOCc1ccc(CON)cc1 ?
10 to 100 µM

Would you mind doing NOCc1cccc(F)c1 [compound 762, O-(3-fluorobenzyl)hydroxylamine] as well?
< 10 µM

----------
Biological target: murine IDO (Mus musculus)
Construct: expressed in transfected cells; host or cells: 293-T-REx cells (Invitrogen), doxycycline-inducible CMV-tet promoter
Experiment: Cell based IDO/kynurenine assay in 293-T-Rex cells expressing murine IDO
Settings: Table 15; cells expressing murine IDO; read-out: mIDO EC50
pEC50: −log10 of the molar value.
Parameter: pEC50. Scope: all listed entries.

Here is how some molecules turned out for pEC50.
NOCc1ccc2c(c1)OCO2; 4.00 to 5.00
NOCc1cc2ccccc2o1 [compound 1774, O-(benzofuran-2-ylmethyl)hydroxylamine]; > 5.00
NOCc1cccc(-c2ccncc2)c1 [compound 1888, O-(3-(pyridin-4-yl)benzyl)hydroxylamine]; 3.00 to 4.00

Which measured pEC50 value corresponds to NOCc1cc(Cl)ccc1-c1ccccc1Cl ?
3.00 to 4.00

Cool, now NOCc1ccccc1NCc1ccccc1
3.00 to 4.00

NOC1CCCc2ccccc21 (centres unmarked) , same question.
4.00 to 5.00

Likewise for N#Cc1ccc(CON)cc1 ?
4.00 to 5.00

Again, but for NOC(c1ccccc1)C1CCCCC1 (centres unmarked)
4.00 to 5.00

Then what about the molecule NOCc1cc(Cl)ccc1-c1ccccc1 ?
4.00 to 5.00

Same read-out for Cc1ccc(-c2cccc(CON)c2)cc1 ?
4.00 to 5.00

Repeat for the following molecule: COC(=O)C(ON)c1ccccc1 (centres unmarked) [compound 1886, methyl 2-(aminooxy)-2-phenylacetate]
> 5.00

----------
Target: murine IDO (Mus musculus, UniProt P28776)
Construct: expressed in transfected cells; host or cells: 293-T-REx cells (Invitrogen), doxycycline-inducible CMV-tet promoter
Sequence (P28776 whole entry): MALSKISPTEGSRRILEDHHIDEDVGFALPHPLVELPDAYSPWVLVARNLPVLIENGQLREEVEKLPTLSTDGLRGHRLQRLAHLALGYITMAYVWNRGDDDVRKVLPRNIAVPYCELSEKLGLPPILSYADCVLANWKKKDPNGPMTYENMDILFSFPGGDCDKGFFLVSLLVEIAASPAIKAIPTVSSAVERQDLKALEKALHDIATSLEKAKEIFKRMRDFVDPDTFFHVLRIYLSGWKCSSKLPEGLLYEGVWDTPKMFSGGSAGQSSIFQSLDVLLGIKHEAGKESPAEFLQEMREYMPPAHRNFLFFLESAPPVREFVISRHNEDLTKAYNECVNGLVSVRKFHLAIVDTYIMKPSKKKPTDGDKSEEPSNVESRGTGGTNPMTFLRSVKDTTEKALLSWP
Test: Cell based IDO/kynurenine assay in 293-T-Rex cells expressing murine IDO
Settings: Table 16; cells expressing murine IDO; read-out: mIDO EC50
pEC50: −log10 of the molar value.
// values below are reported pEC50

NOCc1ccccc1C(F)(F)F; 4.00 to 5.00

What value of pEC50 has been recorded for this entry: C=CCC(ON)c1cccc([N+](=O)[O-])c1 (centres unmarked)
> 5.00

Also, NOCc1cccc(Br)c1 [compound 1656, O-(3-bromobenzyl)hydroxylamine] please.
> 5.00

Query NOCc1cccc(I)c1 [compound 1816, O-(3-iodobenzyl)hydroxylamine] next
4.00 to 5.00

Try the molecule NOCc1ccccc1CON
4.00 to 5.00
